- assay-notes: Example 5 table: serum, urinary and GnRH mRNA parameters in OVX groups
- Assay type: in vivo
- protocol-conditions: doses not given
Each record here notes measured GnRH mRNA levels silver grains per cell.
Give the quantity in silver grains per cell, number only.

Consider the worked cases shown below.
INSERT INTO results (compound, quantitative_result) VALUES
  ('CC(=O)O[C@]1(C(C)=O)CC[C@H]2[C@@H]3C[C@H](C)C4=CC(=O)CC[C@]4(C)[C@H]3CC[C@@]21C', 35.5),
  ('C[C@]12CC[C@@H]3c4ccc(O)cc4CC[C@H]3[C@@H]1CC[C@@H]2O [E2, 17β-estradiol]', 40.4),
  ('C[C@]12CC[C@H](O)CC1=CC[C@@H]1[C@@H]2CC[C@]2(C)C(=O)CC[C@@H]12 [DHEA, dehydroepiandrosterone]', 34.5);

// moving on: another record for GnRH mRNA levels silver grains per cell
What does the data say about its GnRH mRNA levels silver grains per cell? Entry: `C[C@]12CCC(=O)C[C@@H]1CC[C@@H]1[C@@H]2CC[C@]2(C)[C@@H](O)CC[C@@H]12` 38.8

* * *

- assay-notes: Example 5 table: serum, urinary and GnRH mRNA parameters in OVX groups
- Assay type: in vivo
- protocol-conditions: doses not given
Each record here notes measured Urinary OH-proline/creatinin.
Give the quantity in μmol/mmol, number only.

Consider the worked cases shown below.
INSERT INTO results (compound, display_unit, quantitative_result) VALUES
  ('C[C@]12CC[C@@H]3c4ccc(O)cc4CC[C@H]3[C@@H]1CC[C@@H]2O [E2, 17β-estradiol]', 'μmol/mmol', 9.2),
  ('C[C@]12CCC(=O)C[C@@H]1CC[C@@H]1[C@@H]2CC[C@]2(C)[C@@H](O)CC[C@@H]12', 'μmol/mmol', 7.8),
  ('C[C@]12CC[C@H](O)CC1=CC[C@@H]1[C@@H]2CC[C@]2(C)C(=O)CC[C@@H]12 [DHEA, dehydroepiandrosterone]', 'μmol/mmol', 7.3);

// moving on: another record for Urinary OH-proline/creatinin
What does the data say about its Urinary OH-proline/creatinin? Entry: `CC(=O)O[C@]1(C(C)=O)CC[C@H]2[C@@H]3C[C@H](C)C4=CC(=O)CC[C@]4(C)[C@H]3CC[C@@]21C` 11.7
